Attribution: patent US20080076740A1

- test.description: Phosphonate prodrugs in vivo summary (pharmacokinetics)
- condition.parameters: species not given
For each of the compounds below, state its (head line blank).
# unit: mL/min/kg | format: bare number

Prompt line: Form field: reported (head line blank) of "CCOC(=O)[C@H](C)NP(=O)(CCNC(=O)c1c2c(c(O)c3ncccc13)C(=O)N(Cc1ccc(F)cc1)C2)N[C@@H](C)C(=O)OCC"
Response line: 58.3

Prompt line: Likewise for CCOC(=O)C(C)NP(=O)(CCN(C)C(=O)c1c2c(c(O)c3ncccc13)C(=O)N(Cc1ccc(F)cc1)C2)Oc1ccccc1 (centres unmarked) ?
Response line: 15

Prompt line: Likewise for CCOC(=O)[C@H](C)NP(=O)(CCCNC(=O)c1c2c(c(O)c3ncccc13)C(=O)N(Cc1ccc(F)cc1)C2)Oc1ccccc1 (some centres unmarked) ?
Response line: 6.7

Prompt line: Likewise for CCOC(=O)[C@H](C)OP(=O)(CCN1CCN(C(=O)Oc2c3c(c(O)c4ncccc24)C(=O)N(Cc2ccc(F)cc2)C3)CC1)Oc1ccccc1 (some centres unmarked) ?
Response line: 60

Prompt line: Likewise for CCOC(=O)[C@H](C)NP(=O)(CCNC(=O)c1c2c(c(O)c3ncccc13)C(=O)N(Cc1ccc(F)cc1)C2)Oc1ccccc1 (some centres unmarked) ?
Response line: 15

Prompt line: Likewise for CCOC(=O)[C@H](C)NP(=O)(CCN(C)C(=O)c1c2c(c(O)c3ncccc13)C(=O)N(Cc1ccc(F)cc1)C2)OCC(F)(F)F (some centres unmarked) ?
Response line: 43.3

Prompt line: Likewise for CCOC(=O)[C@H](C)NP(=O)(CCN1CCN(C(=O)c2c3c(c(O)c4ncccc24)C(=O)N(Cc2ccc(F)cc2)C3)CC1)Oc1ccccc1 (some centres unmarked) ?
Response line: 13

Prompt line: Likewise for CCOC(=O)[C@H](C)OP(=O)(CCN1CCN(C(=O)c2c3c(c(O)c4ncccc24)C(=O)N(Cc2ccc(F)cc2)C3)CC1)Oc1ccccc1 (some centres unmarked) ?
Response line: 76.7

Prompt line: Likewise for CCOC(=O)[C@H](C)NP(=O)(CO[C@H](C)CNC(=O)c1c2c(c(O)c3ncccc13)C(=O)N(Cc1ccc(F)cc1)C2)Oc1ccccc1 (some centres unmarked) ?
Response line: 15

Prompt line: Likewise for CCOC(=O)[C@H](C)NP(=O)(CCCN(C)C(=O)c1c2c(c(O)c3ncccc13)C(=O)N(Cc1ccc(F)cc1)C2)Oc1ccccc1 (some centres unmarked) ?
Response line: 12

Prompt line: Likewise for CCOC(=O)[C@H](C)OP(=O)(CCNC(=O)c1c2c(c(O)c3ncccc13)C(=O)N(Cc1ccc(F)cc1)C2)Oc1ccccc1 (some centres unmarked) ?
Response line: 16.7

====

- Tested on: HIV
- test.description: Anti-HIV activity in MT4 cells
- Type: cell-based
- condition.parameters: Human immunodeficiency virus 1
property.label: EC50

Prompt line: Form field: reported EC50 of CCOP(=O)(CN1CCN(C(=O)Oc2c3c(c(O)c4ncccc24)C(=O)N(Cc2ccc(F)cc2)C3)CC1)OCC [Compound 2003]
Response line: < 20 nM

Prompt line: Likewise for CCOP(=O)(CNC(=O)CCSC1c2c(c(O)c3ncccc3c2OC)C(=O)N1Cc1ccc(F)cc1)OCC (centres unmarked) [Compound 2021] ?
Response line: < 500 nM

Prompt line: Likewise for COP(=O)(CCN1CCN(C(=O)Oc2c3c(c(O)c4ncccc24)C(=O)N(Cc2ccc(F)cc2)C3)CC1)OC [Compound 2004] ?
Response line: < 20 nM

Prompt line: Likewise for CCOP(=O)(COc1c2c(c(O)c3ncccc13)C(=O)N(Cc1ccc(F)cc1)C2)OCC [Compound 2002] ?
Response line: < 20 nM

Prompt line: Likewise for CCOC(=O)[C@H](C)OP(=O)(CCN1CCN(C(=O)Oc2c3c(c(O)c4ncccc24)C(=O)N(Cc2ccc(F)cc2)C3)CC1)Oc1ccccc1 (some centres unmarked) [Compound 2005] ?
Response line: < 20 nM
